- target system: Protein Wnt-3a (Mus musculus, UniProt P27467)
- Sequence (P27467 whole entry): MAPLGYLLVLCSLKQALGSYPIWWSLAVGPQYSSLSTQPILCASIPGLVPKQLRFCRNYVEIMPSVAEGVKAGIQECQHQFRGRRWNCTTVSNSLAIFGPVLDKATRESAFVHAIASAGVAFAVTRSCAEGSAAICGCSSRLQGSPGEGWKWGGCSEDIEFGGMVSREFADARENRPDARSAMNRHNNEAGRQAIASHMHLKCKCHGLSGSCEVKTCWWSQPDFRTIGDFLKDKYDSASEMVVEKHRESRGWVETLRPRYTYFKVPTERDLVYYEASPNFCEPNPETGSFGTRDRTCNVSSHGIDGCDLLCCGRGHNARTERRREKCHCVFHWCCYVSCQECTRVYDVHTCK
- method summary: Wnt3a-driven reporter signaling inhibition, dose response, selectivity assay for Gli-SUFU antagonist project, Wnt-LIGHT cells, luminescence (AID 651570);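 note: Wnt-LIGHT reporter cells stimulated with conditioned medium from Wnt3a-producing cells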
- Format: functional
- measurement conditions: read-out: IC50_Mean
Activity calls are given as the source filed them.
Form field: IC50 (one value per entry).

Cc1nn(-c2ccc(NC(=O)c3ccncc3)cc2)c(C)c1Cl :: 3 µM (active)

Query: Note down IC50 recorded for COc1ccccc1C(=O)NC(=S)/C=C1/N(C)c2ccccc2C1(C)C
Response: 15.2 µM (active)

Query: Answer with the recorded IC50 for the compound listed here: COC(=O)c1cc(S(=O)(=O)N2CCC(c3cc(OC)ccc3OC)C2)c[nH]1 (centres undefined)
Response: 7.87 µM (active)

Query: Please list IC50 recorded for the compound COc1ccc(NS(=O)(=O)c2ccc(NC(C)=O)cc2)cc1OC
Response: 12 µM (active)

---

- target system: UniProtKB P0AE70
- Sequence (P0AE70 whole entry): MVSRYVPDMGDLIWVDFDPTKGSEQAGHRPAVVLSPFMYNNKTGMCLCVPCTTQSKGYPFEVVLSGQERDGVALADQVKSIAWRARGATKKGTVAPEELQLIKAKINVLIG
- method summary: fluorescent RNA oligo signal without MazF, dose response, counter-screen for MazEF activator project, biochemical, fluorescence, single-stranded RNase substrate (AID 588502)
- Type: functional
Calls of active or inactive are those of the source.
test readout: EC50

CCOc1ccc2c(c1)S/C(=C\c1cccs1)C(=O)N2 :: > 99 µM (inactive)
CCCn1nc(-c2ccccc2)c2nc3ccccc3nc21 :: 61.7 µM (inactive)
Cc1ccc(-c2cc(C#N)c(=O)n(Cc3c(Cl)cccc3Cl)c2)cc1 :: 41.9 µM (inactive)

Attention now shifts to the item below.
Query: Respond only with EC50 recorded for O=C(Nc1cc(F)cc(F)c1)c1ccc(NCCc2ccccc2)c([N+](=O)[O-])c1
Response: 88.4 µM (inactive)

---

The following are reported AC50 results, target or system Cytochrome P450 2D6 (Homo sapiens, UniProt P10635).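 Note: CYP2D6 member of a cytochrome P450 panel assay.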

Would you please look over these solved cases?
COc1cccc(Cn2c(=O)c(-c3cn(C)c4ccccc34)nc3cnc(N4CCNCC4)nc32)c1 :: 39.8 µM (inconclusive)
CN(C)C(=O)c1ccc(-c2nc(NCc3cccnc3)c3ccccc3n2)cc1 :: 39.8 µM (inconclusive)
CCCC[C@@H]1C[C@H]1C(NC(=O)Cc1ccccc1)c1ccc(Cl)cc1 (stereo partly specified) :: 7.94 µM (inconclusive)
Cc1ccc(OCCCn2c(=O)sc3ccccc32)cc1 :: 14.1 µM (inconclusive)
c1ccc2oc(C3=NCCN3)cc2c1 :: 39.8 µM (inconclusive)

Next:
Query: Report AC50 on Cytochrome P450 2D6 (Homo sapiens, UniProt P10635) for this entry: COCCCNC(=O)C1CCC(=O)N1Cc1ccccc1Cl (stereo unspecified)
Sequence (P10635 whole entry): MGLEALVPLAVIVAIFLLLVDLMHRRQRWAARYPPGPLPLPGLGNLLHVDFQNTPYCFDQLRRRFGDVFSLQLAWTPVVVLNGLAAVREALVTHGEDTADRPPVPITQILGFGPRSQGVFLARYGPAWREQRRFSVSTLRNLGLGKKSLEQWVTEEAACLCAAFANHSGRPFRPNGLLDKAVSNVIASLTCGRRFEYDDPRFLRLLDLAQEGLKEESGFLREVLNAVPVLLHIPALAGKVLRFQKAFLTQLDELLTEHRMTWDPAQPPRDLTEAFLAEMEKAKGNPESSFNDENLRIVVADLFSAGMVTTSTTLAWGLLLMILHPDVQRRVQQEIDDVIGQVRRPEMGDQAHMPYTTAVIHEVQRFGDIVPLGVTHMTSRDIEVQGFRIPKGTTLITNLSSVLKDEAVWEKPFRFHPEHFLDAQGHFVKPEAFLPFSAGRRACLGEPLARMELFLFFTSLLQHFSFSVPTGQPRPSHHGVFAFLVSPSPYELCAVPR
Response: 25.1 µM (inconclusive)

---

As a worked illustration, we turn to AC50 data collected for UniProt:P05177.
Sequence (P05177 whole entry): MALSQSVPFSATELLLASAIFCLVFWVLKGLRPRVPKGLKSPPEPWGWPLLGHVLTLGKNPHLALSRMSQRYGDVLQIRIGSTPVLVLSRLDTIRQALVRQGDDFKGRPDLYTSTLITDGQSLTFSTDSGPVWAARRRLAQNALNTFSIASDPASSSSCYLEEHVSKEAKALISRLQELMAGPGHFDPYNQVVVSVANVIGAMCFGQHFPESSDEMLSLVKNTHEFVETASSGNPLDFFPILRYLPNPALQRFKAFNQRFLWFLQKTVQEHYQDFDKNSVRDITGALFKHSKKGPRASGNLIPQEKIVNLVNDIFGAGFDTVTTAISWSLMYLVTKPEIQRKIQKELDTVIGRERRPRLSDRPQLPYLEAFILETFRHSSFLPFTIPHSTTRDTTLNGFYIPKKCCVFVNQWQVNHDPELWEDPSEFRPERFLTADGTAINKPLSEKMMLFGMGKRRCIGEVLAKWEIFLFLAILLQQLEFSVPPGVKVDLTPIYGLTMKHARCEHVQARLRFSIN

Query: Enter measured AC50, system UniProt:P05177, for the compound shown: COC(=O)[C@@]1(Cc2ccc(F)cc2)[C@H]2c3cc(C(=O)N(C)C)n(CCc4c[nH]c5ccc(OC)cc45)c3C[C@H]2CN1C(=O)c1ccccc1
Response: 12.6 µM (inconclusive)

Query: Jot down AC50 (UniProt:P05177) of CCC(c1nnnn1CC1CCCO1)N(CCN1CCOCC1)Cc1cc2cc(C)ccc2nc1O (stereo unspecified) .
Response: 25.1 µM (inconclusive)

Query: Give AC50 only, for N#Cc1cccc(NC(=O)N2CC3(CCN(C(=O)Oc4ccccc4)CC3)C2)c1 , using UniProt:P05177 data.
Response: 15.8 µM (inconclusive)

Cited source for all entries: ChEMBL document CHEMBL1201862
